# ASSAY OVERVIEW: Half life po dosed human receiving 400 mg cumulative dose and reporting drug-associated diarrhea and/or abdominal pain on day 2 at 200 mg daily for 3 days followed by weekly dose of 200 mg for 6 months
# Format: ADME, organism-based, Abdomen
# RECORDED CONDITIONS: in vivo
RECORDED METRIC: half-life
Include the unit right after the number.

Req: I am curious: what half-life value has been reported for COc1cc(C)c2c(Oc3cccc(C(F)(F)F)c3)c(OC)cc(NC(C)CCCN)c2n1 (stereo unspecified) ?
Resp: 12 days

* * *

# ASSAY OVERVIEW: Half life po dosed human receiving 1000 mg cumulative dose and reporting drug-associated depression on day 24 at 200 mg daily for 3 days followed by weekly dose of 200 mg for 6 months
# Type: ADME, organism-based
# RECORDED CONDITIONS: in vivo
RECORDED METRIC: half-life (days)
Express the result in days but write the number alone.

Req: I am curious: what half-life value has been reported for COc1cc(C)c2c(Oc3cccc(C(F)(F)F)c3)c(OC)cc(NC(C)CCCN)c2n1 (stereo unspecified) ?
Resp: 12
